Target: T1, oligomeric amyloid-β 1–42 (UniProt P05067 672-713)
T1 construct: amyloid-beta 1-42, cut product of the amyloid precursor protein (APP); numbers count on: the Aβ peptide; Heterogeneous mixture of low-n and high-n oligomers, prepared without separation of monomeric Aβ; also called oAβ_(1–42); oAβ; source: synthetic peptide, bought: AnaSpec (AS-20276); oligomers made by incubation at 22 °C for 16 h, then 4 °C for 24 h, supernatant after 16,000×g
Assay: ELISA; solid phase binding assay: 96-well plate coated with 100 nM oAβ1-42 in PBS overnight at 4 °C, blocked with 4% BSA; purified Fc or sTREM2-Fc proteins in PBST with 0.5% BSA, 30 min at 37 °C; detected with biotinylated anti-Fc antibody, avidin-HRP, TMB, read at 620 nm
Conditions: both partners purified
measurement_name: binding result

binder	measurement_name	observed_measurement
sTREM2-Fc fragment carrying residues 1–71 (Fc fusion, human, UniProt Q9NZC2 19-71, looked up, signal peptide in the construct; human TREM2, C-terminally truncated extracellular domain, residues 1-71) HNTTVFQGVAGQSLQVSCPYDSMKHWGRRKAWCRQLGEKGPCQRVVSTHNLWL	binding result	binds
HNTTVFQGVAGQSLQVSCPYDSMKHWGRRKAWC (Fc fusion, human, UniProt Q9NZC2 19-51, looked up, signal peptide in the construct; human TREM2, C-terminally truncated extracellular domain, residues 1-51) [sTREM2-Fc fragment carrying residues 1–51]	binding result	binds
sTREM2-Fc fragment carrying residues 1–151 (Fc fusion, human, UniProt Q9NZC2 19-151, looked up, signal peptide in the construct; human TREM2, C-terminally truncated extracellular domain, residues 1-151) HNTTVFQGVAGQSLQVSCPYDSMKHWGRRKAWCRQLGEKGPCQRVVSTHNLWLLSFLRRWNGSTAITDDTLGGTLTITLRNLQPHDAGLYQCQSLHGSEADTLRKVLVEVLADPLDHRDAGDLWFPGESESFE	binding result	binds
